- protocol.text: Plasma pharmacokinetics of Z-endoxifen (HPLC assay, non-compartmental analysis)
- Format: in vivo, human
- condition.description: human, plasma, po, 100 mg, DL4 100 mg oral, day 1, mean; read-out: AUC(0-24h), Mean
assay.readout: AUC(0-t) (ng·h/mL)
Answer format: numeric, ng·h/mL implied, no suffix.

Sure, the documented AUC(0-t) for CC/C(=C(\c1ccc(O)cc1)c1ccc(OCCNC)cc1)c1ccccc1 [Z-endoxifen] is 5000

====

- protocol.text: Plasma pharmacokinetics of Z-endoxifen (HPLC assay, non-compartmental analysis)
- Format: in vivo, human
- condition.description: human, plasma, po, 20 mg/day, DL1 20 mg/day oral, day 28, mean; read-out: Adjusted Half-Life, Mean (converted)
assay.readout: half-life (days)
Answer format: numeric, days implied, no suffix.

Sure, the documented half-life for CC/C(=C(\c1ccc(O)cc1)c1ccc(OCCNC)cc1)c1ccccc1 [Z-endoxifen] is 2.33

====

- protocol.text: Plasma pharmacokinetics of Z-endoxifen (HPLC assay, non-compartmental analysis)
- Type: in vivo, human
- condition.description: human, plasma, po, 20 mg/day, DL1 20 mg/day oral, day 28, individual patients; read-out: AUC(0-24h)
assay.readout: AUC(0-t) (ng·h/mL)
Answer format: numeric, ng·h/mL implied, no suffix.

Sure, the documented AUC(0-t) for CC/C(=C(\c1ccc(O)cc1)c1ccc(OCCNC)cc1)c1ccccc1 [Z-endoxifen] is 2960

====

- protocol.text: Plasma pharmacokinetics of Z-endoxifen (HPLC assay, non-compartmental analysis)
- Assay type: in vivo, human
- condition.description: human, plasma, po, 100 mg/day, DL4 100 mg/day oral, day 28, mean (one patient); read-out: C24h, Mean
assay.readout: concentration at 24 h (ng/mL)
Answer format: numeric, ng/mL implied, no suffix.

Sure, the documented concentration at 24 h for CC/C(=C(\c1ccc(O)cc1)c1ccc(OCCNC)cc1)c1ccccc1 [Z-endoxifen] is 428

====

- protocol.text: Plasma pharmacokinetics of Z-endoxifen (HPLC assay, non-compartmental analysis)
- Assay type: in vivo, human
- condition.description: human, plasma, po, 360 mg, DL8 360 mg oral, day 1, mean (excluding patients 35 and 36); read-out: Cmax, Mean
assay.readout: Cmax (ng/mL)
Answer format: numeric, ng/mL implied, no suffix.

Sure, the documented Cmax for CC/C(=C(\c1ccc(O)cc1)c1ccc(OCCNC)cc1)c1ccccc1 [Z-endoxifen] is 1310

====

- protocol.text: Plasma pharmacokinetics of Z-endoxifen (HPLC assay, non-compartmental analysis)
- Format: in vivo, human
- condition.description: human, plasma, po, 60 mg/day, DL3 60 mg/day oral, day 28, mean; read-out: C24h, Mean
assay.readout: concentration at 24 h (ng/mL)
Answer format: numeric, ng/mL implied, no suffix.

Sure, the documented concentration at 24 h for CC/C(=C(\c1ccc(O)cc1)c1ccc(OCCNC)cc1)c1ccccc1 [Z-endoxifen] is 345

====

- protocol.text: Plasma pharmacokinetics of Z-endoxifen (HPLC assay, non-compartmental analysis)
- Type: in vivo, human
- condition.description: human, plasma, po, 140 mg, DL5 140 mg oral, day 1, mean; read-out: Tmax, Mean
- Method: This was an open-label trial of Z-endoxifen in patients with advanced solid tumors (https://clinicaltrials.gov/ identifier: NCT01273168). […] Plasma and urine concentrations of Z- and E-endoxifen were measured using a validated, post-column fluorescence derivatization HPLC assay. Non-compartmental pharmacokinetic parameters were calculated using WinNonlin version 7.0 (Pharsight Corp., Mountainview, CA, USA). […] The amount of Z-endoxifen excreted in urine was measured over a 24-hour collection period.
assay.readout: Tmax (h)
Answer format: numeric, h implied, no suffix.

Sure, the documented Tmax for CC/C(=C(\c1ccc(O)cc1)c1ccc(OCCNC)cc1)c1ccccc1 [Z-endoxifen] is 4.3
